# Tested on: Malme-3M
# measurement_description: NCI tumour cell line growth inhibition, 48 h
The source made the active and inactive calls. No stated cut-off is given here; in the data, active = GI50 up to about 1.1 µM and inactive = higher.
property: GI50

Entry Cc1cc(S(=O)(=O)Nc2nc(N)n(C)n2)c(S)cc1Cl , system Malme-3M: what GI50 was measured?
> 10 µM (inactive)

Entry CC(C)CCC[C@@H](C)[C@H]1CC[C@H]2[C@@H]3CC[C@H]4C[C@@H](CCC=C(c5cc(Cl)c(O)c(C(=O)O)c5)c5cc(Cl)c(O)c(C(=O)O)c5)CC[C@]4(C)[C@H]3CC[C@]12C , system Malme-3M: what GI50 was measured?
> 100 µM (inactive)

Entry COc1cc[n+](C)cc1 , system Malme-3M: what GI50 was measured?
> 100 µM (inactive)

Entry O=C(N/N=C(COc1ccc(Cl)cc1)\N=C\c1cccnc1)c1ccncc1 , system Malme-3M: what GI50 was measured?
49.7 µM (inactive)

Entry COc1c2cc([N+](=O)[O-])cc1CNC(=O)CN1CCOCCOCCN(CCOCCOCC1)CC(=O)NC2 , system Malme-3M: what GI50 was measured?
> 100 µM (inactive)

Entry OCCCc1ccc2c(c1)[C@H](CO)[C@@H](c1ccc(O)cc1)O2 , system Malme-3M: what GI50 was measured?
13.8 µM (inactive)

Entry O=[N+]([O-])/C=C/c1ccc(Cl)cc1Cl , system Malme-3M: what GI50 was measured?
17.8 µM (inactive)

Entry CC(=O)Nc1ccccc1-c1nc2ccccc2nc1C , system Malme-3M: what GI50 was measured?
> 100 µM (inactive)

Entry NN=C1/C(=C\c2ccccc2)CCC/C1=C/c1ccccc1 , system Malme-3M: what GI50 was measured?
22.4 µM (inactive)

Entry CSc1nc(NC2OCC(OC(C)=O)C(OC(C)=O)C2OC(C)=O)c(/N=C(\C)C(C)=O)c(=O)n1C (stereo unspecified) , system Malme-3M: what GI50 was measured?
> 100 µM (inactive)

Entry CCC12CCCN(Cc3ccccc3)C1c1c(n(C)c3ccccc13)C(C(=O)OC)C2 (stereo unspecified) , system Malme-3M: what GI50 was measured?
> 239 µM (inactive)

Entry COC(=O)C(=O)C(C(=O)C(=O)Nc1ccccc1C(N)=O)c1nc2ccc([N+](=O)[O-])cc2nc1O (stereo unspecified) , system Malme-3M: what GI50 was measured?
> 100 µM (inactive)

----------
# Tested on: HCT-15
Quick reference for GI50 among some compounds
Use µM as the unit, but write only the number.

For orientation, consider the following solved cases.
compound: O=C(O)CSC(CC(=O)c1ccc(Cl)cc1)c1ccc(Cl)cc1 (stereo unspecified)
value: 22.1
--
compound: FC(F)(F)c1ccc(/N=C/C=C(/Nc2ccc(C(F)(F)F)cc2)c2ccc(Cl)cc2)cc1
value: 4.73
--
compound: CCCCCNC(=O)c1c(O)[nH]c(=S)[nH]c1=O
value: 90.6
--
compound: Oc1cc(O)c2c(c1)O[C@H](c1cc(O)c(O)c(O)c1)[C@@H](O)C2
value: 40
--
compound: CC1=NN(c2cccc(Cl)c2)C(=N/c2nc3ccccc3s2)/C1=C\c1ccccc1O
value: 27.6

Look up GI50: Cc1cc(S(N)(=O)=O)c(S/C(=N\Nc2ccc([N+](=O)[O-])cc2)c2ccc(Cl)cc2)cc1Cl
4.3

Look up GI50: O=[N+]([O-])c1ccc2c(c1)C(N1CCN(CCO)CC1)Cc1ccc(F)cc1S2 (stereo unspecified)
5.93
